# system: 5-hydroxytryptamine receptor 1A (Rattus norvegicus, UniProt P19327)
# Sequence (P19327 whole entry): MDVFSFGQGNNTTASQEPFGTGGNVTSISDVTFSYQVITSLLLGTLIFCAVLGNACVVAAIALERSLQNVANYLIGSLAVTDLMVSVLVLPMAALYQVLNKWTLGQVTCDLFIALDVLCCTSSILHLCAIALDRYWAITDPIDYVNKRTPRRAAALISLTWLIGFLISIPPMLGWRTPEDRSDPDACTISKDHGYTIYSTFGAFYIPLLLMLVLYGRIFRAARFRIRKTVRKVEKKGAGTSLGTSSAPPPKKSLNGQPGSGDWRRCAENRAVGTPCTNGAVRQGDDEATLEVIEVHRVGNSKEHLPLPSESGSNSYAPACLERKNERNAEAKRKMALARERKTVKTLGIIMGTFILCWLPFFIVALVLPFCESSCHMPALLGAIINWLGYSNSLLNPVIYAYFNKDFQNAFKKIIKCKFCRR
# test_details: Displacement of [3H]8OH-DPAT from 5HT1A in Sprague-Dawley rat brain cortex by liquid scintillation counting
# condition_description: read-out: Ki
Assignment: determine reported Ki for the given compounds.
Put down the number, then write its unit next to it.

Prompt: I'd like to know its Ki. The compound in question is `CCOC(=O)c1cc2cc(OCCCN3CCN(c4ccc(OC)cc4)CC3)ccc2[nH]1`
Completion: 10 µM

Prompt: Continue with `CCOC(=O)c1cc2cc(OCCCN3CCN(c4ccccc4Cl)CC3)ccc2[nH]1`
Completion: 10 µM

Prompt: Continue with `CCOC(=O)c1cc2cc(OCCCN3CCN(c4cccc(Cl)c4)CC3)ccc2[nH]1`
Completion: 0.039 µM

Prompt: Continue with `CCOC(=O)c1cc2cc(OCCCN3CCN(Cc4ccc5c(c4)OCO5)CC3)ccc2[nH]1`
Completion: 10 µM

Prompt: Continue with `CCOC(=O)c1cc2cc(OCCCN3CCN(c4ccc(Cl)cc4)CC3)ccc2[nH]1`
Completion: 0.014 µM

Prompt: Continue with `CCOC(=O)c1cc2cc(OCCCN3CCN(c4ccc(Cl)c(Cl)c4)CC3)ccc2[nH]1`
Completion: 10 µM

Prompt: Continue with `CCOC(=O)c1cc2cc(OCCCN3CCN(c4cccc(C(F)(F)F)c4)CC3)ccc2[nH]1`
Completion: 0.0358 µM

---

# system: 5-hydroxytryptamine receptor 2A (Rattus norvegicus)
# Sequence (P14842 whole entry): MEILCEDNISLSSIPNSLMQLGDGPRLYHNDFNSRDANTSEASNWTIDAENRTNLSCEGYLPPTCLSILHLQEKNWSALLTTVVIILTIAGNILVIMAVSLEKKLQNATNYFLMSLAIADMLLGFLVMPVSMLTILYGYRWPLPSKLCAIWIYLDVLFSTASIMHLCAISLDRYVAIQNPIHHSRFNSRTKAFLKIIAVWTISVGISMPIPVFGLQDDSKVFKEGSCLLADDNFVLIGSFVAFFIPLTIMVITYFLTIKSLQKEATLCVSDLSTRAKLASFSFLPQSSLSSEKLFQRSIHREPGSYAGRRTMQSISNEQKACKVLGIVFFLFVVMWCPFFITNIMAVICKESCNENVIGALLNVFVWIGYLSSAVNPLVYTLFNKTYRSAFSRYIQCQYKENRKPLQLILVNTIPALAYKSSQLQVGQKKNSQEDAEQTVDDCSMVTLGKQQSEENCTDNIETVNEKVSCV
# test_details: Displacement of [3H]ketanserin from 5HT2A in Sprague-Dawley rat brain cortex by liquid scintillation counting
# condition_description: read-out: Ki
experimental_endpoint: pKi
Note: pKi values are expressed as the negative base-10 logarithm of concentration in M.

Prompt: I'd like to know its pKi. The molecule in question is `CCOC(=O)c1cc2cc(OCCCN3CCN(c4ccc([N+](=O)[O-])cc4)CC3)ccc2[nH]1`
Completion: 5.00

Prompt: Continue with `CCOC(=O)c1cc2cc(OCCCN3CCN(c4cccc(C(F)(F)F)c4)CC3)ccc2[nH]1`
Completion: 5.44

Prompt: Continue with `CCOC(=O)c1cc2cc(OCCCN3CCN(c4ccccc4Cl)CC3)ccc2[nH]1`
Completion: 6.27

Prompt: Continue with `CCOC(=O)c1cc2cc(OCCCN3CCN(c4ccccn4)CC3)ccc2[nH]1`
Completion: 6.46

Prompt: Continue with `CCOC(=O)c1cc2cc(OCCCN3CCN(C(=O)c4ccco4)CC3)ccc2[nH]1`
Completion: 6.34

Prompt: Continue with `CCOC(=O)c1cc2cc(OCCCN3CCN(c4ccc(OC)cc4)CC3)ccc2[nH]1`
Completion: 5.00

Prompt: Continue with `CCOC(=O)c1cc2cc(OCCCN3CCN(Cc4ccc5c(c4)OCO5)CC3)ccc2[nH]1`
Completion: 7.58
